Entries and their measured viability at 48 h, 200 µM follow.
test: Cytotoxicity against mouse RAW264.7 cells assessed as survival rate at 200 uM after 48 hrs by MTT assay in presence of LPS relative to control; type: cell-based; conditions: read-out: Survival
Report only the number, with the unit % understood.

Request: So what's the measured viability at 48 h, 200 µM for this one? COC1=CC2(C=C(OC)C1=O)[C@H](CO)[C@@H](c1cc(OC)c(O)c(OC)c1)O[C@@H]2[C@@H](O)CO
Result: 109

Request: So what's the measured viability at 48 h, 200 µM for this one? C[C@@H]1C[C@H]2[C@@H]3CCC4=CC(=O)C=C[C@]4(C)[C@@]3(F)[C@@H](O)C[C@]2(C)[C@@]1(O)C(=O)CO [DEXAMETHASONE]
Result: 100

Request: So what's the measured viability at 48 h, 200 µM for this one? COC1=CC2(C=C(OC)C1=O)[C@@H](CO)[C@H](c1ccc(O)c(OC)c1)O[C@H]2[C@H](O)CO
Result: 90

Request: So what's the measured viability at 48 h, 200 µM for this one? COC1=CC2(C=C(OC)C1=O)[C@@H](CO)[C@H](c1cc(OC)c(O)c(OC)c1)O[C@H]2[C@H](O)CO
Result: 111

Please turn your attention to the following entry.
Request: So what's the measured viability at 48 h, 200 µM for this one? COC1=CC2(C=C(OC)C1=O)[C@H](CO)[C@@H](c1ccc(O)c(OC)c1)O[C@@H]2[C@@H](O)CO
Result: 104

The values you see were collected from ChEMBL document CHEMBL3593223.
